- Target system: HLA-A*31:01
- Protocol description: IEDB peptide-MHC binding, purified MHC/direct/fluorescence; filed as Kd, often an IC50 or EC50 that approximates it; bounds were set here for any values at or beyond the usual limits of such assays
- Condition description: source organism: H9N2 subtype Influenza A virus (A/swine/Korea/S83/2004(H9N2))
pKd: −log10 of the molar value.
Metric name: pKd

Prompt: Report pKd for "FQKDAKVLF" please.
Completion: ≤ 4.70

----------
- Target system: HLA-B*58:01
- Protocol description: IEDB peptide-MHC binding, purified MHC/direct/fluorescence; filed as Kd, often an IC50 or EC50 that approximates it; bounds were set here for any values at or beyond the usual limits of such assays
- Condition description: source organism: Influenza A virus (A/swine/Chiai/77-10/2001(H3N1))
Metric name: pKd
Note on pKd: it is the negative log10 of concentration, concentration in mol/L.

Prompt: Report pKd for "VSFDQNLDY" please.
Completion: 5.46

----------
- Target system: HLA-A*02:19
- Protocol description: IEDB peptide-MHC binding, purified MHC/direct/fluorescence; filed as Kd, often an IC50 or EC50 that approximates it; bounds were set here for any values at or beyond the usual limits of such assays
- Condition description: source organism: Choclo virus
pKd: −log10 of the molar value.
Metric name: pKd

Prompt: Report pKd for "LPSSSSYSY" please.
Completion: ≤ 4.70

----------
- Target system: HLA-A*31:01
- Protocol description: IEDB peptide-MHC binding, purified MHC/competitive/radioactivity; filed as Kd, often an IC50 or EC50 that approximates it; bounds were set here for any values at or beyond the usual limits of such assays
- Condition description: source organism: Vaccinia virus WR
Metric name: pKd
Note on pKd: it is the negative log10 of concentration, concentration in mol/L.

[[record]]
biopolymer_sequence = "AVFKDSFLR"
test_value = 8.52


Prompt: Report pKd for "ALEYLSELK" please.
Completion: 5.07

Prompt: Report pKd for "VTSLAIKNYY" please.
Completion: 6.55

----------
- Target system: HLA-A*11:01
- Protocol description: IEDB peptide-MHC binding, purified MHC/competitive/fluorescence; bounds were set here for any values at or beyond the usual limits of such assays
- Condition description: source organism: Zaire ebolavirus
A collection of sequences and their measured pIC50
Note on pIC50: it is the negative log10 of concentration, concentration in mol/L.

[[record]]
biopolymer_sequence = "VGHMMVIFR"
metric_name = "pIC50"
test_value = 6.71

[[record]]
biopolymer_sequence = "AVSSGKNIK"
metric_name = "pIC50"
test_value = 4.26

[[record]]
biopolymer_sequence = "SFASLFLPK"
metric_name = "pIC50"
test_value = 7.09

[[record]]
biopolymer_sequence = "LHPLARTAK"
metric_name = "pIC50"
test_value = 4.81


Prompt: Report pIC50 for "EAIVNAQPK" please.
Completion: 4.46

----------
- Target system: HLA-A*31:01
- Protocol description: IEDB peptide-MHC binding, purified MHC/competitive/radioactivity; filed as Kd, often an IC50 or EC50 that approximates it; bounds were set here for any values at or beyond the usual limits of such assays
- Condition description: source organism: SARS coronavirus Tor2
A collection of sequences and their measured Kd
Express the result in nM but write the number alone.

[[record]]
biopolymer_sequence = "LLDSYFVVK"
metric_name = "Kd"
test_value = 1270

[[record]]
biopolymer_sequence = "QSLCFLLTQK"
metric_name = "Kd"
test_value = 54.2

[[record]]
biopolymer_sequence = "LLFVVEVVDK"
metric_name = "Kd"
test_value = 6560

[[record]]
biopolymer_sequence = "IAQSKGLYR"
metric_name = "Kd"
test_value = 98

[[record]]
biopolymer_sequence = "ALLRALRLTK"
metric_name = "Kd"
test_value = 233

[[record]]
biopolymer_sequence = "GLVASIKNFK"
metric_name = "Kd"
test_value = 7560

[[record]]
biopolymer_sequence = "QQLRVESSSK"
metric_name = "Kd"
test_value = 435

[[record]]
biopolymer_sequence = "TTGIGYQPYR"
metric_name = "Kd"
test_value = 105


Then there is this sequence:
Prompt: Lab note: need Kd with HLA-A*31:01 for entry "SQIQLSLLK" , please look it up.
Completion: 18000
